study.target: T1, recombinant extracellular domain of human 5T4 (soluble, produced in house) (human, UniProt Q13641 32-355)
T1 construct: extracellular domain; The signal peptide lies within residues 1-355 and is not part of the secreted protein; also called 5T4-ECD; 5T4 recombinant protein
T1 sequence: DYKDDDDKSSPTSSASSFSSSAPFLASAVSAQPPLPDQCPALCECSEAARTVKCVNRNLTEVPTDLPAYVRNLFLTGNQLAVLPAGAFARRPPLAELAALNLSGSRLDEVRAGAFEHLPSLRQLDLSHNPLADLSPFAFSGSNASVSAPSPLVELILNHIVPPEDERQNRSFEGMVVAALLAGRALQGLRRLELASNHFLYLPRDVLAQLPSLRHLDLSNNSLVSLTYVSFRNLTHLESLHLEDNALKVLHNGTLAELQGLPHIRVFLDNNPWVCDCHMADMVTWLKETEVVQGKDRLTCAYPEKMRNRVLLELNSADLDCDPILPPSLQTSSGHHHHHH
method: ELISA on coated 5T4-ECD
metric: pKd
Give bare numbers, as −log10 of the molar value.

| binder | pKd |
| --- | --- |
| BiTE format, scFv(5T4)-scFv(CD3) fusion with humanized VH(5T4) SEQ ID 6 and VL(5T4) SEQ ID 19 (bispecific antibody, V domains shown, The molecule is a single polypeptide, scFv(5T4)-scFv(CD3); also called scFv-scFv format) VH: QVQLVQSGAEVKKPGASVKVSCKASGYSFTSYYMHWVKQSPGQGLEWIGRINPNNGVTLYNQKFKDRVTMTRDTSISTAYMELSRLRSDDTAVYYCARSTMITNYVMDYWGQGTLVTVSS VL: DIVMTQSPDSLAVSLGERATINCKASQSVSNDVAWYQQKPGQPPKLLIYYTSSRYAGVPDRFSGSGSGTDFTLTISSLQAEDVAVYYCQQDYNSPPTFGGGTKLEIK | 8.70 |
| Fab(5T4), humanized VH(5T4) SEQ ID 6 and VL(5T4) SEQ ID 19 in Fab format (Fab, V domains shown, Fab format) VH: QVQLVQSGAEVKKPGASVKVSCKASGYSFTSYYMHWVKQSPGQGLEWIGRINPNNGVTLYNQKFKDRVTMTRDTSISTAYMELSRLRSDDTAVYYCARSTMITNYVMDYWGQGTLVTVSS VL: DIVMTQSPDSLAVSLGERATINCKASQSVSNDVAWYQQKPGQPPKLLIYYTSSRYAGVPDRFSGSGSGTDFTLTISSLQAEDVAVYYCQQDYNSPPTFGGGTKLEIK | 8.54 |

Query string: // pKd lookup, key: IgG(5T4), humanized VH(5T4) SEQ ID 6 and VL(5T4) SEQ ID 19 in IgG format (antibody, V domains shown, also called IgG1(5T4)) VH: QVQLVQSGAEVKKPGASVKVSCKASGYSFTSYYMHWVKQSPGQGLEWIGRINPNNGVTLYNQKFKDRVTMTRDTSISTAYMELSRLRSDDTAVYYCARSTMITNYVMDYWGQGTLVTVSS VL: DIVMTQSPDSLAVSLGERATINCKASQSVSNDVAWYQQKPGQPPKLLIYYTSSRYAGVPDRFSGSGSGTDFTLTISSLQAEDVAVYYCQQDYNSPPTFGGGTKLEIK
Result string: 9.15

Measured values drawn from patent US20170342160A1 for this set.
